# Tested on: Histophilus somni
# procedure-text: minimum inhibitory concentration (MIC)
# study-conditions: isolate (source animal id): 196
parameter-measured: minimum inhibitory concentration

[
  {
    "smiles-str": "CS(=O)(=O)c1ccc([C@@H](O)[C@@H](CF)NC(=O)C(Cl)Cl)cc1",
    "measured-value": "≤ 0.25 µg/mL"
  },
  {
    "smiles-str": "NC[C@@H]1O[C@H](O[C@H]2[C@@H](O)[C@H](O[C@@H]3[C@@H](O)[C@H](N)C[C@H](N)[C@H]3O[C@H]3O[C@H](CN)[C@@H](O)[C@H](O)[C@H]3N)O[C@@H]2CO)[C@H](N)[C@@H](O)[C@@H]1O",
    "measured-value": "> 32 µg/mL"
  },
  {
    "smiles-str": "CO/N=C(\\C(=O)N[C@@H]1C(=O)N2C(C(=O)O)=C(CSC(=O)c3ccco3)CS[C@H]12)c1csc(N)n1",
    "measured-value": "≤ 0.25 µg/mL"
  }
]
